Measured pIC50 accompanies every entry in the list below.
- Assay Target: integrin α4β7 (Homo sapiens, UniProt P13612+P26010)
- Sequence (P13612 34-1032): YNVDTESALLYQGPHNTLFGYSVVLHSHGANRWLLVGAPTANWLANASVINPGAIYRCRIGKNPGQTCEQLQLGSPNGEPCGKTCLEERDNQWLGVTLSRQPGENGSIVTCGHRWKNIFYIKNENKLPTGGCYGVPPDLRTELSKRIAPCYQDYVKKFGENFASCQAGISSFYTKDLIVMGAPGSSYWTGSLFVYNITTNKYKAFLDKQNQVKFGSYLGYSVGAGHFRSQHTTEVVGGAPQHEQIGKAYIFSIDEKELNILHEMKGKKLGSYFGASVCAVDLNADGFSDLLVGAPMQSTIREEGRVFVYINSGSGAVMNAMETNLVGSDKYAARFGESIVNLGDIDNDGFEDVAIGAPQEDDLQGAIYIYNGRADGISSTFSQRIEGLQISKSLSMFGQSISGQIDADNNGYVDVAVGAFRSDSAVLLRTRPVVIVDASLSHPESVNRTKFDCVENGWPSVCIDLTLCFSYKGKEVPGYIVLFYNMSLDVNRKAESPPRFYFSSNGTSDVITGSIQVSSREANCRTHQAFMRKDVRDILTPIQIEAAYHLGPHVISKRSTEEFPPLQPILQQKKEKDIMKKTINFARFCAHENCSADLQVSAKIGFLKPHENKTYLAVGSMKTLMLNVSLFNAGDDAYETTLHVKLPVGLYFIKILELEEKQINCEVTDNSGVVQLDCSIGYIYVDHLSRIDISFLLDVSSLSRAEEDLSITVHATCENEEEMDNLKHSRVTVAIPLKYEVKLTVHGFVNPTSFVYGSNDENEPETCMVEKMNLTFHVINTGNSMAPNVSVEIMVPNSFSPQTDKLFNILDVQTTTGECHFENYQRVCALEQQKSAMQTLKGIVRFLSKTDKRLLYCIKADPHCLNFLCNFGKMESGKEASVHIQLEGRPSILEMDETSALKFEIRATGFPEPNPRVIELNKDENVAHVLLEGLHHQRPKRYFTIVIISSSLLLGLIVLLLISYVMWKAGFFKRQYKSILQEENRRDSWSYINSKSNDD
- Sequence (P26010 20-798): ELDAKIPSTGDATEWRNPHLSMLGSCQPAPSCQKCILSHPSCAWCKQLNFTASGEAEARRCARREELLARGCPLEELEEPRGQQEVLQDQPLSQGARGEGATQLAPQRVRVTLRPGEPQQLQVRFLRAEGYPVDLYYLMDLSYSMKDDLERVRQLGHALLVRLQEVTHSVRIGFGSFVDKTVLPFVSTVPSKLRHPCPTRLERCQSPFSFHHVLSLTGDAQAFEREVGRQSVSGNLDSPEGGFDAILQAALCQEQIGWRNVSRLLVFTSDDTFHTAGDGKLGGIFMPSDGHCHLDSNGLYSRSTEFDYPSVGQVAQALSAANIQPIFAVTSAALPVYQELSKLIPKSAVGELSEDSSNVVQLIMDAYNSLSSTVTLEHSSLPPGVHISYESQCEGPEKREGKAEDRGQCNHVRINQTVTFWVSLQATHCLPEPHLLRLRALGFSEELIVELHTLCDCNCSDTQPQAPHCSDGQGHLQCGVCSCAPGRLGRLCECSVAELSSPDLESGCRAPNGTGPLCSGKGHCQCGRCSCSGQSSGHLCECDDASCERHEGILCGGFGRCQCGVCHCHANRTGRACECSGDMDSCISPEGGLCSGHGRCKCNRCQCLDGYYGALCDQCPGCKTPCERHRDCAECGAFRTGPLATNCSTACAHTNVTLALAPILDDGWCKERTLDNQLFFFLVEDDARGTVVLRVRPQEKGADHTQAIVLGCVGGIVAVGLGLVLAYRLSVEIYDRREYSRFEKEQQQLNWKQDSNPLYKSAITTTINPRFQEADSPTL
- Test Method Notes: Integrin α4β7-mediated cell adhesion assay (RPM18866 cells on MAdCAM-1)
- Recorded Conditions: RPMI-8866 cells adhering to MAdCAM-1
pIC50: −log10 of the molar value.

In the examples that follow, each entry is paired with its recorded pIC50.
Look up pIC50 for this compound: Cc1cc(C)c(-c2cc(C(CC(=O)O)NC(=O)C(CC(C)C)n3cc(CCN(C)C)c(C(F)(F)F)cc3=O)cn3ccnc23)c(C)c1 (stereo not shown) [Trifluoroacetate of compound 22-2] > 8.00

Fill in: pIC50 of C#Cc1cc(-c2c(C)cc(F)cc2C)cc(C(CC(=O)O)NC(=O)C(CC(C)C)n2cc(CCN(C)C)c(C(F)(F)F)cc2=O)c1F (stereo not shown) is ___ > 9.30

Param item = Cc1cc(-c2c(C)cccc2C)cc(C(CC(=O)O)NC(=O)C(CC(C)C)n2cc(CCN3CC(CF)C3)cc(F)c2=O)c1F (stereo not shown) ; retrieve measured pIC50. > 8.00

// returns reported pIC50 for input Cc1cc(F)cc(C)c1-c1cc(C(CC(=O)O)NC(=O)C(CC(C)C)n2cc(CCN(C)C)c(C(F)(F)F)cc2=O)cc2nccn12 (stereo not shown) [Trifluoroacetate of compound 20-2] > 9.30

Quick one: pIC50 of Cc1cc(F)cc(C)c1-c1cc(C(CC(=O)O)NC(=O)C(CC(C)C)n2cc(CCN(C)C)c(C(F)(F)F)cc2=O)cc2c1CCC2 (stereo not shown) ? > 9.30

What value of pIC50 has been reported for the following compound? Cc1ccn(C(CC(C)C)C(=O)NC(CC(=O)O)c2cc(-c3c(C)cccc3C)n3ccnc3c2)c(=O)c1 (stereo not shown) > 8.00

Lab note: next compound to report on.
Please look up its pIC50: C#Cc1ncc(C(CC(=O)O)NC(=O)C(CC(C)C)n2cc(CCN3CC(F)C3)cc(F)c2=O)cc1-c1c(C)cccc1C (stereo not shown) > 9.30
